molecular target: StITPK1 (Solanum tuberosum, UniProt A4H2J0); experiment: Kinase assay with ATP, HPLC of products; type: biochemical; conditions: 1 mM substrate, 3h, 25°C
Sequence (A4H2J0 entry or part of it): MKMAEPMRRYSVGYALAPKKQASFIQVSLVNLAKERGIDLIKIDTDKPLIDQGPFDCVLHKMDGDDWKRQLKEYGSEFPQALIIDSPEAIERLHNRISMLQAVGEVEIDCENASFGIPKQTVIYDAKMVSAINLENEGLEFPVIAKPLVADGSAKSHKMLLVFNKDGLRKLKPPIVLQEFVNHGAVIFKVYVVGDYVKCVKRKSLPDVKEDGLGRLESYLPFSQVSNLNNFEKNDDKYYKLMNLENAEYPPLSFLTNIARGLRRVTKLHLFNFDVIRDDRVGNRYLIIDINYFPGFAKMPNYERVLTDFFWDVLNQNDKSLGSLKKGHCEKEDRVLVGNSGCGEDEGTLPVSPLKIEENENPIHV
Provide the reported Product formation (3h) of each item.
Give the value; after it, write the unit.

StITPK1 (Solanum tuberosum, UniProt A4H2J0) data for O=P(O)(O)CP(=O)(O)OC1C(OP(=O)(O)O)C(OP(=O)(O)O)C(OP(=O)(O)O)C(OP(=O)(O)O)C1OP(=O)(O)O (stereo not drawn) [3-PCP-InsP5] ; its Product formation (3h): 41 μM/μM protein

StITPK1 (Solanum tuberosum, UniProt A4H2J0) data for O=C(O)CP(=O)(O)O[C@H]1[C@H](OP(=O)(O)O)[C@@H](OP(=O)(O)O)[C@@H](OP(=O)(O)O)[C@@H](OP(=O)(O)O)[C@@H]1OP(=O)(O)O [5-PA-InsP5] ; its Product formation (3h): 50 μM/μM protein

StITPK1 (Solanum tuberosum, UniProt A4H2J0) data for O=P(O)(O)CP(=O)(O)O[C@@H]1[C@H](OP(=O)(O)O)[C@H](OP(=O)(O)O)[C@@H](OP(=O)(O)O)[C@H](OP(=O)(O)O)[C@H]1OP(=O)(O)O [1-PCP-InsP5] ; its Product formation (3h): 22 μM/μM protein

---

Provide the reported Product formation (separate 12h experiment) of each item.
target: StITPK1 (Solanum tuberosum, UniProt A4H2J0); experiment: Kinase assay with ATP, HPLC of products; assay type: biochemical; settings: 1 mM substrate, separate 12h experiment

Form field Product formation (separate 12h experiment), entry O=P(O)(O)OC1C(OP(=O)(O)O)C(OP(=O)(O)O)C(OP(=O)(O)O)C(OP(=O)(O)O)C1OP(=O)(O)O (stereo not drawn) [neo-InsP6] : 0 μM/μM protein

Form field Product formation (separate 12h experiment), entry O=P(O)(O)OC1C(OP(=O)(O)O)C(OP(=O)(O)O)C(OP(=O)(O)O)C(OP(=O)(O)O)C1OP(=O)(O)O [D-chiro-InsP6] : 0 μM/μM protein

Form field Product formation (separate 12h experiment), entry O=P(O)(O)O[C@H]1[C@H](OP(=O)(O)O)[C@@H](OP(=O)(O)O)[C@H](OP(=O)(O)O)[C@@H](OP(=O)(O)O)[C@H]1OP(=O)(O)O : 220 μM/μM protein

---

Target: StITPK1 (Solanum tuberosum)
Assay: Kinase assay with ATP, HPLC of products
Assay type: biochemical
Conditions: with ATP, HPLC
Procedure: Kinase assays were performed with ATP-regeneration as described for ATP-grasp kinases ITPK1/2 and VIH1/2 [2-3, 27-29], here in 20 mM HEPES pH 6.5, 1 mM MgCl2, 0.5 mM ATP and 1 mM inositol phosphate substrate. The low rate constants for phospho-kinase activity and the low sensitivity of NMR, PAGE and HPLC […] [2-3, 27-29], here with or without 4 µM protein for 3h or 12h at 25 °C. Competition/inhibition assays were […]
Measurement label: kinase substrate status

{"Compound": "O=C(NC1C(OP(=O)(O)O)C(OP(=O)(O)O)C(OP(=O)(O)O)C(OP(=O)(O)O)C1OP(=O)(O)O)C(F)(F)P(=O)(O)O (centres unmarked) [5-PCF2AM-InsP5]", "Result value": "not a substrate"}
{"Compound": "O=P(O)(O)O[C@H]1[C@@H](OP(=O)(O)O)[C@H](OP(=O)(O)O)[C@@H](OP(=O)(O)OP(=O)(O)O)[C@H](OP(=O)(O)O)[C@H]1OP(=O)(O)O [5-PP-InsP5]", "Result value": "not a substrate"}

---

target: StITPK1 (Solanum tuberosum, UniProt A4H2J0); assay: Competition/inhibition of Ins(1,2,3,4,5)P5 5-phospho-kinase activity, HPLC; format: biochemical; details: 0.5 mM competing substrate/inhibitor, 1 mM Ins(1,2,3,4,5)P5, 3h experiment
The label depends only on % inhibition at 3h, Ins(1,2,3,4,5)P5 substrate: True if it is at least 70%, False if it is smaller.

Ask: Confirm if % inhibition at 3h, Ins(1,2,3,4,5)P5 substrate reported for the compound O=P(O)(O)O[C@@H]1[C@@H](OP(=O)(O)O)[C@@H](OP(=O)(O)O)[C@@H](OP(=O)(O)OP(=O)(O)O)[C@H](OP(=O)(O)O)[C@H]1OP(=O)(O)O is 70% or above.
Reply: True

Ask: Confirm if % inhibition at 3h, Ins(1,2,3,4,5)P5 substrate reported for the compound O=P(O)(O)CP(=O)(O)O[C@@H]1[C@H](OP(=O)(O)O)[C@H](OP(=O)(O)O)[C@@H](OP(=O)(O)O)[C@H](OP(=O)(O)O)[C@H]1OP(=O)(O)O is 70% or above.
Reply: False

Ask: Confirm if % inhibition at 3h, Ins(1,2,3,4,5)P5 substrate reported for the compound O=P(O)(O)CP(=O)(O)OC1C(OP(=O)(O)O)C(OP(=O)(O)O)C(OP(=O)(O)O)C(OP(=O)(O)O)C1OP(=O)(O)O (centres unmarked) [5-PCP-InsP5] is 70% or above.
Reply: False

Ask: Confirm if % inhibition at 3h, Ins(1,2,3,4,5)P5 substrate reported for the compound O=P(O)(O)O[C@H]1[C@H](OP(=O)(O)O)[C@@H](OP(=O)(O)O)[C@H](OP(=O)(O)O)[C@@H](OP(=O)(O)O)[C@H]1OP(=O)(O)O is 70% or above.
Reply: True

---

Biological target: StITPK1 (Solanum tuberosum)
Assay: Kinase assay with ATP, HPLC of products
Format: biochemical
Settings: 1 mM substrate, 3h, 25°C
Protocol: Kinase assays were performed with ATP-regeneration as described for ATP-grasp kinases ITPK1/2 and VIH1/2 [2-3, 27-29], here in 20 mM HEPES pH 6.5, 1 mM MgCl2, 0.5 mM ATP and 1 mM inositol phosphate substrate. The low rate constants for phospho-kinase activity and the low sensitivity of NMR, PAGE and HPLC […] [2-3, 27-29], here with or without 4 µM protein for 3h or 12h at 25 °C. Competition/inhibition assays were […]
Provide the reported Product formation (3h) of each item.
Reply numerically in μM/μM protein, unit not repeated.

Form field Product formation (3h), entry O=C(NC1C(OP(=O)(O)O)C(OP(=O)(O)O)C(OP(=O)(O)O)C(OP(=O)(O)O)C1OP(=O)(O)O)C(F)(F)P(=O)(O)O (stereo not shown) : 0

Form field Product formation (3h), entry O=P(O)(O)O[C@H]1[C@@H](OP(=O)(O)O)[C@H](OP(=O)(O)O)[C@@H](OP(=O)(O)OP(=O)(O)O)[C@H](OP(=O)(O)O)[C@H]1OP(=O)(O)O : 0

Form field Product formation (3h), entry O=P(O)(O)O[C@H]1[C@H](OP(=O)(O)O)[C@@H](OP(=O)(O)O)[C@H](OP(=O)(O)O)[C@@H](OP(=O)(O)O)[C@H]1OP(=O)(O)O : 241

Form field Product formation (3h), entry O=P(O)(O)O[C@@H]1[C@@H](OP(=O)(O)O)[C@@H](OP(=O)(O)O)[C@@H](OP(=O)(O)OP(=O)(O)O)[C@H](OP(=O)(O)O)[C@H]1OP(=O)(O)O : 9

Form field Product formation (3h), entry O=C(CP(=O)(O)O)NC1C(OP(=O)(O)O)C(OP(=O)(O)O)C(OP(=O)(O)O)C(OP(=O)(O)O)C1OP(=O)(O)O (stereo not shown) : 0

Form field Product formation (3h), entry O=P(O)(O)CP(=O)(O)OC1C(OP(=O)(O)O)C(OP(=O)(O)O)C(OP(=O)(O)O)C(OP(=O)(O)O)C1OP(=O)(O)O (stereo not shown) [5-PCP-InsP5] : 0

Form field Product formation (3h), entry O=P(O)(O)OC1[C@@H](OP(=O)(O)O)[C@H](OP(=O)(O)O)C(OP(=O)(O)OP(=O)(O)O)[C@@H](OP(=O)(O)O)[C@H]1OP(=O)(O)O (stereo partly shown) : 35

---

target: StITPK1 (Solanum tuberosum, UniProt A4H2J0); assay: Kinase assay with ATP, HPLC of products; format: biochemical; settings: 1 mM substrate, separate 12h experiment
Measurement label: Product formation (separate 12h experiment) (μM/μM protein)
Reply numerically in μM/μM protein, unit not repeated.

Form field Product formation (separate 12h experiment), entry O=P(O)(O)O[C@@H]1[C@@H](OP(=O)(O)O)[C@H](OP(=O)(O)O)[C@@H](O)[C@@H](O)[C@H]1OP(=O)(O)O : 41

Form field Product formation (separate 12h experiment), entry O=P(O)(O)O[C@@H]1[C@@H](OP(=O)(O)O)[C@H](OP(=O)(O)O)[C@@H](O)[C@H](OP(=O)(O)O)[C@@H]1OP(=O)(O)O : 257

Form field Product formation (separate 12h experiment), entry O=P(O)(O)OC1C(OP(=O)(O)O)C(OP(=O)(O)O)C(OP(=O)(O)O)C(OP(=O)(O)O)C1OP(=O)(O)O (stereo not shown) [scyllo-InsP6] : 0

Form field Product formation (separate 12h experiment), entry O=P(O)(O)O[C@@H]1[C@H](OP(=O)(O)O)[C@H](OP(=O)(O)O)[C@@H](O)[C@H](OP(=O)(O)O)[C@H]1OP(=O)(O)O : 0

Each recorded value in this set is attributed to paper PMC10765375.
